Let's look at some compounds and their measured mass density.
# assayName: cn = amount concentration of the nth substance listed, in mol/dm3
# settings: 311.65 K; 101 kPa; Liquid; c1 = 0.005
// note: answer is a bare numeric in kg/m3

[[record]]
compound = "[Cl-].c1ccc([P+](c2ccccc2)(c2ccccc2)c2ccccc2)cc1 [tetraphenylphosphonium chloride] + O"
valueunit = "kg/m3"
testvalue = 993.46

[[record]]
compound = "[Cl-].c1ccc([P+](c2ccccc2)(c2ccccc2)c2ccccc2)cc1 [tetraphenylphosphonium chloride] + CC#N"
valueunit = "kg/m3"
testvalue = 764.4

[[record]]
compound = "[Cl-].c1ccc([P+](c2ccccc2)(c2ccccc2)c2ccccc2)cc1 [tetraphenylphosphonium chloride] + CCO"
valueunit = "kg/m3"
testvalue = 775.32


Continue with the next compound.
Which value of mass density has been reported for [Cl-].c1ccc([P+](c2ccccc2)(c2ccccc2)c2ccccc2)cc1 [tetraphenylphosphonium chloride] + CO in the records?
774.51

###

Measured specific heat capacity of individual entries
# assayName: specific heat capacity at constant pressure; cn = amount concentration of the nth substance listed, in mol/dm3
# settings: 311.65 K; 101 kPa; Liquid; heat flux microcalorimetry; c1 = 0.02
Give your result in J/K/kg as a bare value.

[[record]]
compound = "[Cl-].c1ccc([P+](c2ccccc2)(c2ccccc2)c2ccccc2)cc1 [tetraphenylphosphonium chloride] + O"
valueunit = "J/K/kg"
testvalue = 4209.8


What value of specific heat capacity has been reported for the following compound? [Cl-].c1ccc([P+](c2ccccc2)(c2ccccc2)c2ccccc2)cc1 [tetraphenylphosphonium chloride] + CCO
2606.3

What specific heat capacity value was documented for this compound, [Cl-].c1ccc([P+](c2ccccc2)(c2ccccc2)c2ccccc2)cc1 [tetraphenylphosphonium chloride] + CO ?
2582.9

Which specific heat capacity value is on record for [Cl-].c1ccc([P+](c2ccccc2)(c2ccccc2)c2ccccc2)cc1 [tetraphenylphosphonium chloride] + CC#N ?
2267.8

###

Attribute: mass density
# assayName: cn = amount concentration of the nth substance listed, in mol/dm3
# settings: 308.65 K; 101 kPa; Liquid; c1 = 0.005
Numbers after ± are expanded uncertainties.

[[record]]
compound = "[Cl-].c1ccc([P+](c2ccccc2)(c2ccccc2)c2ccccc2)cc1 [tetraphenylphosphonium chloride] + CCO"
experimentalreadout = "mass density"
testvalue = "777.31 ± 1.9 kg/m3"

[[record]]
compound = "[Cl-].c1ccc([P+](c2ccccc2)(c2ccccc2)c2ccccc2)cc1 [tetraphenylphosphonium chloride] + CO"
experimentalreadout = "mass density"
testvalue = "776.52 ± 1.9 kg/m3"

[[record]]
compound = "[Cl-].c1ccc([P+](c2ccccc2)(c2ccccc2)c2ccccc2)cc1 [tetraphenylphosphonium chloride] + O"
experimentalreadout = "mass density"
testvalue = "994.05 ± 0.54 kg/m3"


# evaluate next
mass density lookup needed for [Cl-].c1ccc([P+](c2ccccc2)(c2ccccc2)c2ccccc2)cc1 [tetraphenylphosphonium chloride] + CC#N , thanks.
767.478 ± 2 kg/m3

###

# assayName: specific heat capacity at constant pressure; cn = amount concentration of the nth substance listed, in mol/dm3
# settings: 311.65 K; 101 kPa; Liquid; heat flux microcalorimetry; c1 = 0.005
Listed here: items and their measured specific heat capacity.
Unit J/K/kg implied. Number only.

Completed entries (count: 3):
[[record]]
molecule = "[Cl-].c1ccc([P+](c2ccccc2)(c2ccccc2)c2ccccc2)cc1 [tetraphenylphosphonium chloride] + CO"
testvalue = 2564.1

[[record]]
molecule = "[Cl-].c1ccc([P+](c2ccccc2)(c2ccccc2)c2ccccc2)cc1 [tetraphenylphosphonium chloride] + CC#N"
testvalue = 2275.5

[[record]]
molecule = "[Cl-].c1ccc([P+](c2ccccc2)(c2ccccc2)c2ccccc2)cc1 [tetraphenylphosphonium chloride] + O"
testvalue = 4203.6


Moving on to another molecule below.
Form field: reported specific heat capacity of [Cl-].c1ccc([P+](c2ccccc2)(c2ccccc2)c2ccccc2)cc1 [tetraphenylphosphonium chloride] + CCO
2581.5
